# Tested on: HCT-15 colon
# Protocol Details: NCI-60 one-dose screen, 48 h
# Particulars: 10 µM unless noted
About 83,000 compounds went through this panel and 20% of them were active in at least one assay; those are over-represented in the sample as a whole. Activity calls are given as the source filed them. The calls were made as follows: active = growth percent below 10; inactive = the rest.
# valid calls are 1.0 = active, 0.0 = inactive; nothing else

Some solved entries appear below for comparison.
Molecule	Classification
COc1ccc(-c2nc3ccc(-c4nc5ccc(N6CCN(C)CC6)cc5[nH]4)cc3[nH]2)cc1OC	0.0
C#CCOc1ccc2ncnc(Nc3cccc(CNC(=O)CCl)c3)c2c1	0.0

Assay result, entry CCOC(=O)C(C)(C#N)C1C=CCCC1 (stereo not given) — outcome?
0.0

Assay result, entry O=C1c2cccc3cccc(c23)C(=O)N1CCCCN1CCN(CCCCOc2ccc(-c3nc4ccc(N5CCOCC5)cc4[nH]3)cc2)CC1 — outcome?
0.0

Assay result, entry CSc1nc(NCCO)c(C#N)c(-c2cccc([N+](=O)[O-])c2)n1 — outcome?
0.0

Assay result, entry Cn1c(NCCc2ccc(O)c(O)c2)nc2c1c(=O)n(Cc1ccc(Cl)c(Cl)c1)c(=O)n2C — outcome?
0.0

Assay result, entry COc1cc2c(cc1-c1c(C)noc1C)ncc1nc(C3CCCCC3)n([C@H](C)COC(F)F)c12 — outcome?
0.0

Assay result, entry COc1cc2nc(N3CCCC3)nc(NCCc3ccccc3)c2cc1OC — outcome?
1.0

Assay result, entry N=C(N)c1ccc(-c2ccc(-c3ccc4ccccc4c3)s2)s1 — outcome?
1.0

Assay result, entry C=C(C)C1CC(O)C2(C)CCCC3C2C1CC(C)C3(C)CC/C(C)=C/C(O)C1CCC(=O)c2c(OC)cc(OC)cc21 (stereo not given) — outcome?
0.0

Hey, just so you know, these numbers are from PubChem BioAssay (NCI).
